Target: T1, human C1s (human, UniProt P09871 16-688)
T1 construct: also called hC1s; serum-derived human C1s (CompTech)
T1 sequence: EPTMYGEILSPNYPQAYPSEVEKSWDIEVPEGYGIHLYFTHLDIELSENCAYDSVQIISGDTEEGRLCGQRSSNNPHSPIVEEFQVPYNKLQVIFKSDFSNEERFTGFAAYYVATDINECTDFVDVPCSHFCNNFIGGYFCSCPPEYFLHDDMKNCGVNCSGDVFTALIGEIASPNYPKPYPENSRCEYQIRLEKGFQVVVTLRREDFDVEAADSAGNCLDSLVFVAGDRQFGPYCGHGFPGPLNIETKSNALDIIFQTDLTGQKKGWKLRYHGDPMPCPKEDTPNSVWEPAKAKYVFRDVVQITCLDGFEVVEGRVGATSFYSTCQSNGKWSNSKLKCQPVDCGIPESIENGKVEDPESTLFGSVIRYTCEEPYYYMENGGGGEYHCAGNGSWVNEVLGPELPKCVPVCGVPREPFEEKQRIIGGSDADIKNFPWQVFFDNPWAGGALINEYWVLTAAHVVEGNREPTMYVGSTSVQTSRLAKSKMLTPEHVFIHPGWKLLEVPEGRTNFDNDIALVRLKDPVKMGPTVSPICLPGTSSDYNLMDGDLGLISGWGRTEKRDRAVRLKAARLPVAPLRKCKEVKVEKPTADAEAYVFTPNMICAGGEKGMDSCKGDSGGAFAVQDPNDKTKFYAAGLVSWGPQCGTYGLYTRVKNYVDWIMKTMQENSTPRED
Assay: SPR, Ab captured; pH 5.8, 3 uM Ca
outcome measure: kon (M⁻¹ s⁻¹)
One number for each entry, in M⁻¹ s⁻¹.

Below: 2 binders and their reported kon.
C1_IPN009VH2-SG4GK/IPN93L0029-SK1 (antibody, human IgG4 S228P, kappa, name in Kabat numbering, V domains shown, also called IPN009VH2/IPN93L0029) VH: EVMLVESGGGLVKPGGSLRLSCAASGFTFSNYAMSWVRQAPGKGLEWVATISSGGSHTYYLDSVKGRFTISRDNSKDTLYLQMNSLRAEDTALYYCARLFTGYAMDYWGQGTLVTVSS VL: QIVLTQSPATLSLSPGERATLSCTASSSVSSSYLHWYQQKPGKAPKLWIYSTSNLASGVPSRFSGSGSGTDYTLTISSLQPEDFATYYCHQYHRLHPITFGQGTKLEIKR ... 534000
C1_IPN92H0026-SG4GK/IPN93L0023-SK1 (antibody, human IgG4 S228P, kappa, name in Kabat numbering, V domains shown, also called IPN92H0026/IPN93L0023) VH: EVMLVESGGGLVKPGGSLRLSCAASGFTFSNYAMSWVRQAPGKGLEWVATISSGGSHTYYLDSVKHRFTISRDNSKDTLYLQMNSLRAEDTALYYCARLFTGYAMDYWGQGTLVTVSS VL: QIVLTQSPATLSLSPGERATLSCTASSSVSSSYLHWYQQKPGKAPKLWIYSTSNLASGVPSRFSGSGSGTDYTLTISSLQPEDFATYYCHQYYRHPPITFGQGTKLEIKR ... 6.23e+06

--- query ---
Query: Entry C1_IPN92H0033-SG4GK/IPN93L0029-SK1 (antibody, human IgG4 S228P, kappa, name in Kabat numbering, V domains shown, also called IPN92H0033/IPN93L0029) VH: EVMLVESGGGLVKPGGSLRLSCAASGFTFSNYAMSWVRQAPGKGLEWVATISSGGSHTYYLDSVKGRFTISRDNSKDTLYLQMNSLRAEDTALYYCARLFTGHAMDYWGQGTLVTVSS VL: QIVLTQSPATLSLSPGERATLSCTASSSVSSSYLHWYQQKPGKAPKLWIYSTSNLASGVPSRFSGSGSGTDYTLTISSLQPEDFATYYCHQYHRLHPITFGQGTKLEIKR needs its kon filled in; supply it.
Result: 384000

Provenance of the data: patent US20210032365A1
